Tested on: HCT-116 colon
Test: NCI tumour cell line growth inhibition, 48 h
ATTRIBUTE MEASURED: TGI

The following compounds have reported results that may help.
{"COMPOUND": "Cn1c(=O)c2[nH]c(-n3nc(-c4ccccc4)cc3N)nc2n(C)c1=O", "TGI": "> 100 µM"}
{"COMPOUND": "CC(C)(Oc1ccc(C(=O)c2ccc(Cl)cc2)cc1Cl)C(=O)N1CCN(c2ccccc2)CC1", "TGI": "> 100 µM"}

Input line: May I ask what TGI has been recorded for Clc1ccc(-c2cn(-c3ccccc3)c(-c3ccccc3)n2)c(Cl)c1 ?
Output line: 2.66 µM

Input line: Record: CC(C)(C)C(=O)OCC(COC(=O)C(C)(C)C)[N+](=O)[O-]
Output line: > 100 µM

Input line: Record: Cc1nn(C(=O)c2ccc(Cl)cc2)c2c1C(c1ccco1)SC(N)=N2 (stereo not drawn)
Output line: > 10 µM

Input line: Record: CCOC(=O)CCC(NC(=O)c1ccc(NCc2ccc3nc(-c4ccccc4)c(Cl)nc3c2)c2ccccc12)C(=O)OCC (stereo not drawn)
Output line: > 100 µM

Input line: Record: C=C1[C@H](OCC(C)C)[C@@H](OC(=O)C(C)CC)[C@@H](O)C(C)(C)/C=C/[C@H](C)C(=O)[C@@]2(O)C[C@H](C)[C@H](O)[C@@H]2[C@H]1OC(=O)C(C)CC (stereo partly drawn)
Output line: > 20 µM

Input line: Record: O=Cc1cc(O)c(O)c(/C=N/n2c3ccccc3c3ccccc32)c1
Output line: 31.2 µM

Input line: Record: CCCC1C(C#N)(C#N)C(C#N)=C(N)C1(C)C(C)=O (stereo not drawn)
Output line: > 100 µM

Input line: Record: CC(C)(C)OC(=O)NCCNC(=O)CN(CC(=O)O)C1CCCCC1N(CC(=O)O)CC(=O)O (stereo not drawn)
Output line: > 100 µM

Input line: Record: c1ccc2c(c1)ccc1c3ccccc3ccc21
Output line: > 50 µM

Input line: Record: Cc1cccc(N2C(=O)C(=O)C(c3nc4ccccc4s3)C(=O)C2=O)c1C
Output line: > 100 µM

Input line: Record: CCOC(=O)c1cnc2c(cnn2CC)c1NN=C(C)C
Output line: > 100 µM

Input line: Record: CN(C)/C=N/S(=O)(=O)c1nn2c(C=O)c(-c3cc4ccccc4oc3=O)nc2s1
Output line: 5.89 µM

Input line: Record: Cc1ccccc1NC(=O)c1sc2nc3c(cc2c1N)C(=O)CCC3
Output line: > 100 µM

Input line: Record: CN(C)CCCC(=O)Nc1ccc(Cn2nnc3c2C(=O)c2nnn(Cc4ccc(NC(=O)CCCN(C)C)cc4)c2C3=O)cc1
Output line: 11.6 µM

Input line: Record: CCOC(=O)C12C(=O)CCN1CCc1ccccc1C2C (stereo not drawn)
Output line: > 100 µM

Input line: Record: O=C(CC(=O)c1ccccc1NC1=Cc2ccccc2C(=O)C1=O)C(=O)NC1=C(Cl)C(=O)c2ccccc2C1=O
Output line: 6.37 µM
